EC50: recorded values
molecular target: human FXR (Homo sapiens, UniProt Q96RI1); test: transient human FXR/Gal4-luciferase reporter assay (HLE GAL-FXR); details: FXR EC50 (nM), Gal4-hFXR fusion reporter, HEK293 cells; Table 1
Sequence (Q96RI1 262-486 limits assumed): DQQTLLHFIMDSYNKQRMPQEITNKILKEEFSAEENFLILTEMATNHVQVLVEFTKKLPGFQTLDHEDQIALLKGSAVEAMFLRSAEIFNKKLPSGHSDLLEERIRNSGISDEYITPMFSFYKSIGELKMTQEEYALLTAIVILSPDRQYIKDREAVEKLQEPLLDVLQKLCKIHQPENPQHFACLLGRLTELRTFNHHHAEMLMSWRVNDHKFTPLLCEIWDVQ
EXPERIMENTAL READOUT: EC50

{"COMPOUND": "COc1cc(C(=O)O)cc(-c2ccc(N3CC(/C=C/c4c(-c5c(Cl)cncc5Cl)noc4C4CC4)C3)cc2)c1 [Example 219]", "TEST VALUE": "117 nM"}
{"COMPOUND": "O=C(O)c1cc(O[C@H]2C[C@H](F)C2)c2cc(N3CC4C(/C=C/c5c(-c6ccccc6C(F)(F)F)noc5C5CC5)C4C3)ccc2n1 (stereo partly shown) [Example 199]", "TEST VALUE": "63 nM"}
{"COMPOUND": "O=C(O)c1cc(OC(F)F)c2cc(N3CCC(/C=C/c4c(-c5ccccc5C(F)(F)F)noc4C4CC4)CC3)ccc2n1 [Example 99]", "TEST VALUE": "3 nM"}
{"COMPOUND": "O=C(O)c1cc(OC2CCC2)c2cc(N3CC[C@@H](/C=C/c4c(-c5ccccc5C(F)(F)F)noc4C4CC4)C3)ccc2n1 [Example 147]", "TEST VALUE": "139 nM"}
{"COMPOUND": "O=C(O)c1ccc(N2CC3C(/C=C/c4c(-c5c(Cl)cncc5Cl)noc4C4CC4)C3C2)cc1 (stereo not shown) [Example 96]", "TEST VALUE": "66 nM"}
{"COMPOUND": "COc1cc(C(=O)O)nc2ccc(N3CCC(/C=C/c4c(-c5c(Cl)cncc5Cl)noc4C4CC4)CC3)cc12 [Example 88]", "TEST VALUE": "5 nM"}
{"COMPOUND": "COc1cc(C(=O)O)cc(-c2nc(N3CC4C(/C=C/c5c(-c6cccnc6C(F)(F)F)noc5C5CC5)C4C3)no2)c1 (stereo not shown) [Example 155]", "TEST VALUE": "784 nM"}
{"COMPOUND": "O=C(O)c1cc(OC2CCC2)c2cc(N3CC(/C=C/c4c(-c5ccccc5C(F)(F)F)noc4C4CC4)C3)ccc2n1 [Example 150]", "TEST VALUE": "58 nM"}
{"COMPOUND": "O=C(O)c1cc(C(F)(F)F)c2cc(N3CCC(/C=C/c4c(-c5ccccc5C(F)(F)F)noc4C4CC4)CC3)ccc2n1 [Example 45]", "TEST VALUE": "12 nM"}
{"COMPOUND": "O=C(O)c1ccc2nc(N3CCC(/C=C/c4c(-c5c(Cl)cccc5Cl)noc4C4CC4)CC3)ccc2c1 [Example 33]", "TEST VALUE": "15 nM"}
{"COMPOUND": "O=C(O)c1nccc2cc(N3CC4C(/C=C/c5c(-c6c(Cl)cncc6Cl)noc5C5CC5)C4C3)ccc12 (stereo not shown) [Example 105]", "TEST VALUE": "310 nM"}
{"COMPOUND": "COc1cc(C(=O)O)cc(-c2ccc(N3CC(/C=C/c4c(-c5ccccc5C(F)(F)F)noc4C4CC4)C3)nc2)c1 [Example 222]", "TEST VALUE": "34 nM"}
{"COMPOUND": "O=C(O)c1cc(O[C@H]2C[C@@H](F)C2)c2cc(N3CC4C(/C=C/c5c(-c6c(Cl)cncc6Cl)noc5C5CC5)C4C3)ccc2n1 (stereo partly shown) [Example 203]", "TEST VALUE": "16 nM"}
{"COMPOUND": "COc1cc(C(=O)O)nc2ccc(N3CCC(/C=C/c4c(-c5ccccc5C(F)(F)F)noc4C4CC4)CC3)cc12 [Example 100]", "TEST VALUE": "4 nM"}
{"COMPOUND": "O=C(O)c1cc2ccc(N3CC4C(/C=C/c5c(-c6c(Cl)cccc6Cl)noc5C5CC5)C4C3)cc2nn1 (stereo not shown) [Example 66]", "TEST VALUE": "227 nM"}
{"COMPOUND": "O=C(O)c1cc(O[C@@H]2CCOC2)c2cc(N3CC(/C=C/c4c(-c5cccnc5C(F)(F)F)noc4C4CC4)C3)ccc2n1 [Example 188]", "TEST VALUE": "1690 nM"}
{"COMPOUND": "O=C(O)c1cc(C(F)(F)F)c2cc(N3CC4C(/C=C/c5c(-c6ccccc6C(F)(F)F)noc5C5CC5)C4C3)ccc2n1 (stereo not shown) [Example 75]", "TEST VALUE": "577 nM"}
{"COMPOUND": "O=C(O)c1nccc2cc(N3CCC(/C=C/c4c(-c5c(Cl)cncc5Cl)noc4C4CC4)CC3)ccc12 [Example 104]", "TEST VALUE": "219 nM"}
{"COMPOUND": "COc1cc(C(=O)O)nc2sc(N3CC(/C=C/c4c(-c5ccccc5C(F)(F)F)noc4C4CC4)C3)nc12 [Example 153]", "TEST VALUE": "473 nM"}
{"COMPOUND": "O=C(O)c1nc(C(F)(F)F)n2cc(N3CCC(/C=C/c4c(-c5c(Cl)cccc5Cl)noc4C4CC4)CC3)ccc12 [Example 39]", "TEST VALUE": "5 nM"}
{"COMPOUND": "O=C(O)c1ccc(N2CC3C(/C=C/c4c(-c5c(Cl)cncc5Cl)noc4C4CC4)C3C2)nc1 (stereo not shown) [Example 102]", "TEST VALUE": "1270 nM"}
{"COMPOUND": "O=C(O)c1ccc2nc(N3CC4C(/C=C/c5c(-c6c(Cl)cncc6Cl)noc5C5CC5)C4C3)ccc2c1 (stereo not shown) [Example 79]", "TEST VALUE": "1160 nM"}
{"COMPOUND": "O=C(O)c1ccc(N2CCC(/C=C/c3c(C4CC4)nnn3-c3c(Cl)cccc3Cl)CC2)nc1 [Example 16]", "TEST VALUE": "109 nM"}
{"COMPOUND": "CC1(/C=C/c2c(-c3c(Cl)cccc3Cl)noc2C2CC2)CCN(c2ccc(C(=O)O)cn2)CC1 [Example 34]", "TEST VALUE": "403 nM"}
{"COMPOUND": "Cn1cc(C(=O)O)c2ccc(N3CCC(/C=C/c4c(-c5c(Cl)cccc5Cl)noc4C4CC4)CC3)nc21 [Example 20]", "TEST VALUE": "21 nM"}
{"COMPOUND": "COc1cc(C(=O)O)nc2ccc(N3CC4C(/C=C/c5c(-c6cccnc6C(F)(F)F)noc5C5CC5)C4C3)cc12 (stereo not shown) [Example 141]", "TEST VALUE": "98 nM"}
{"COMPOUND": "O=C(O)c1cccc(-c2ccc(N3CC(/C=C/c4c(-c5ccccc5C(F)(F)F)noc4C4CC4)C3)cc2)c1 [Example 207]", "TEST VALUE": "64 nM"}
{"COMPOUND": "O=C(O)c1cc(OC2CCC2)c2cc(N3CC(/C=C/c4c(-c5c(Cl)ccnc5Cl)noc4C4CC4)C3)ccc2n1 [Example 159]", "TEST VALUE": "39 nM"}

====

biological target: human FXR (Homo sapiens, UniProt Q96RI1); assay: transient human FXR/Gal4-luciferase reporter assay (HLE GAL-FXR); conditions: HLE GAL-FXR EC50, Gal4-hFXR fusion reporter, HEK293 cells
EC50: recorded values
EXPERIMENTAL READOUT: EC50

{"COMPOUND": "O=C(O)c1cc(F)c2nc(N3CCC(/C=C/c4c(C5CC5)nnn4-c4c(Cl)cccc4Cl)CC3)sc2c1", "EXPERIMENTAL READOUT": "EC50", "TEST VALUE": "0.064 µM"}
{"COMPOUND": "O=C(O)c1ccc(N2CCC(/C=C\\c3c(-c4c(Cl)cccc4Cl)noc3C3CC3)CC2)nc1", "EXPERIMENTAL READOUT": "EC50", "TEST VALUE": "0.107 µM"}
{"COMPOUND": "O=C(O)c1ccc(N2CCC(/C=C/c3c(C4CC4)cnn3-c3c(Cl)cccc3Cl)CC2)nc1", "EXPERIMENTAL READOUT": "EC50", "TEST VALUE": "0.148 µM"}
{"COMPOUND": "CS(=O)(=O)NC(=O)c1ccc(N2CC3C(/C=C/c4c(-c5c(Cl)cccc5Cl)noc4C4CC4)C3C2)cc1 (centres unmarked)", "EXPERIMENTAL READOUT": "EC50", "TEST VALUE": "0.083 µM"}
{"COMPOUND": "COc1cc(C(=O)O)cc(-c2nsc(N3CC4C(/C=C/c5c(-c6c(Cl)cncc6Cl)noc5C5CC5)C4C3)n2)c1 (centres unmarked)", "EXPERIMENTAL READOUT": "EC50", "TEST VALUE": "0.107 µM"}

====

target: human FXR (Homo sapiens, UniProt Q96RI1); assay: transient human FXR/Gal4-luciferase reporter assay (HLE GAL-FXR); conditions: FXR EC50 (nM), Gal4-hFXR fusion reporter, HEK293 cells; Table 1

{"COMPOUND": "O=C(O)c1cc(OC2CCC2)c2cc(N3CC4C(/C=C/c5c(-c6cccnc6C(F)(F)F)noc5C5CC5)C4C3)ccc2n1 (stereo not drawn)", "EC50, nM": 54}
{"COMPOUND": "O=C(O)c1cc(F)c2nc(N3CCC(/C=C/c4c(-c5ccccc5OC(F)(F)F)noc4C4CC4)CC3)sc2c1", "EC50, nM": 42}
{"COMPOUND": "O=C(O)c1ccc(N2CCC(/C=C/c3c(-c4c(Cl)cccc4Cl)noc3C3CC3)CC2)nn1", "EC50, nM": 447}
{"COMPOUND": "O=C(O)c1cc2ccc(N3CC4C(/C=C/c5c(-c6c(Cl)cncc6Cl)noc5C5CC5)C4C3)cc2cn1 (stereo not drawn)", "EC50, nM": 673}
{"COMPOUND": "Cn1cc(C(=O)O)c(=O)c2ccc(N3CC4C(/C=C/c5c(-c6c(Cl)cncc6Cl)noc5C5CC5)C4C3)cc21 (stereo not drawn)", "EC50, nM": 276}
{"COMPOUND": "O=C(O)c1ccc(N2CC3C(/C=C/c4c(-c5c(Cl)cncc5Cl)noc4C4CC4)C3C2)c2ncccc12 (stereo not drawn)", "EC50, nM": 824}
{"COMPOUND": "O=C(O)c1cc(OC(F)F)c2cc(N3CCC(/C=C/c4c(-c5cccnc5C(F)(F)F)noc4C4CC4)CC3)ccc2n1", "EC50, nM": 3}
{"COMPOUND": "O=C(O)c1cnc(N2CCC(/C=C/c3c(-c4c(Cl)cccc4Cl)noc3C3CC3)CC2)cn1", "EC50, nM": 127}
{"COMPOUND": "O=C(O)c1cc(OC2COC2)c2cc(N3CC(/C=C/c4c(-c5c(Cl)cncc5Cl)noc4C4CC4)C3)ccc2n1", "EC50, nM": 65}
{"COMPOUND": "O=C(O)c1cc2ccc(N3CCC(/C=C/c4c(-c5cccnc5C(F)(F)F)noc4C4CC4)CC3)cc2cn1", "EC50, nM": 189}
{"COMPOUND": "O=C(O)c1cc(F)c2nc(N3CC4C(/C=C/c5c(-c6c(Cl)cncc6Cl)noc5C5CC5)C4C3)sc2c1 (stereo not drawn)", "EC50, nM": 786}
{"COMPOUND": "O=C(O)c1ccc2nc(N3CC4C(/C=C/c5c(-c6c(Cl)cncc6Cl)noc5C5CC5)C4C3)sc2c1 (stereo not drawn)", "EC50, nM": 515}
{"COMPOUND": "O=C(O)c1ccc2cc(N3CC4C(/C=C/c5c(-c6c(Cl)cncc6Cl)noc5C5CC5)C4C3)ccc2n1 (stereo not drawn)", "EC50, nM": 267}
{"COMPOUND": "O=C(O)c1ccnc(N2CCC(/C=C/c3c(-c4c(Cl)cccc4Cl)noc3C3CC3)CC2)c1", "EC50, nM": 144}
{"COMPOUND": "O=C(O)c1cnc2cc(N3CC4C(/C=C/c5c(-c6c(Cl)cncc6Cl)noc5C5CC5)C4C3)ccc2n1 (stereo not drawn)", "EC50, nM": 192}
{"COMPOUND": "COc1c(C(=O)O)cccc1-c1nc(N2CC3C(/C=C/c4c(-c5c(Cl)cncc5Cl)noc4C4CC4)C3C2)no1 (stereo not drawn)", "EC50, nM": 1100}
{"COMPOUND": "O=C(O)c1nc2ccc(N3CC4C(/C=C/c5c(-c6c(Cl)cncc6Cl)noc5C5CC5)C4C3)cc2s1 (stereo not drawn)", "EC50, nM": 472}
{"COMPOUND": "O=C(O)c1cc(O[C@H]2C[C@@H](F)C2)c2cc(N3CC(/C=C/c4c(-c5cccnc5C(F)(F)F)noc4C4CC4)C3)ccc2n1", "EC50, nM": 286}
